Values were extracted from patent US4124726A.

- Tested on: thrombosis
- ASSAY OVERVIEW: inhibiting effect on thrombosis (arterio-venous by-pass, silk thread)
- Format: in vivo, SD type male rats
- TEST CONTEXT: Rattus norvegicus; 100 mg/kg oral, 5 hours before first circulation, rats; read-out: Thrombosis inh.
Short version: inhibition in vivo at 100 mg/kg at least 20% is TRUE, less is FALSE.

Study these solved cases before continuing.
>>> label_class("CCCCCCCCCc1ccc(C(=O)c2ccccc2)cc1")
"FALSE"
>>> label_class("CCCc1ccc(C(=O)c2ccccc2C)cc1")
"FALSE"
>>> label_class("CCCCc1ccc(C(=O)c2ccccc2)cc1")
"FALSE"
>>> label_class("Cc1cc(C)c(C(=O)c2ccccc2)cc1C")
"TRUE"
>>> label_class("CCCCCCOc1ccc(C(=O)Cc2ccc(Cl)cc2)cc1")
"FALSE"
>>> label_class("CCCCc1ccc(C(=O)c2ccc(C)cc2)cc1")
"TRUE"
>>> label_class("CCCCc1ccc(C(=O)c2ccc(CCCC)cc2)cc1")
"TRUE"
>>> label_class("Cc1ccc(C)c(C(=O)c2ccccc2)c1")
"FALSE"
>>> label_class("Cc1ccc(C(=O)c2ccccc2)c(C)c1")
"FALSE"
>>> label_class("CC(C)(C)c1ccc(C(=O)c2ccccc2)cc1")
"FALSE"

Here's the next entry for you.
query: Given the entry `Cc1cc(C)c(C(=O)c2ccccc2)c(C)c1` , answer whether its inhibition in vivo at 100 mg/kg meets or surpasses 20%.
result: TRUE

* * *

- Test system: painful stretchings induced by acetic acid
- ASSAY OVERVIEW: acetic acid induced stretching (analgesic effect)
- TEST CONTEXT: 100 mg/kg oral, 0.7% acetic acid i.p., mice
The reader will find reported Analgesic (percentage diminution of times of painful stretchings) values listed item by item below.
# do not omit the unit; it follows the number

Here is how some compounds turned out for Analgesic (percentage diminution of times of painful stretchings).
>>> result("CCCCCCc1ccc(C(=O)c2c(C)cc(C)cc2C)cc1 [compound 103]")
"14.2%"
>>> result("CCCCOc1ccc(C(=O)c2ccccc2)cc1 [compound 42]")
"26.8%"
>>> result("CCCCc1ccc(C(=O)C(=O)c2ccccc2)cc1 [compound 29]")
"2.7%"
>>> result("CCCCCc1ccc(C(=O)c2ccccc2C)cc1 [compound 41]")
"14.6%"

GET /value?item= CCc1cc(CC)c(C(=O)c2ccccc2)c(CC)c1 [compound 13] &field=Analgesic (percentage diminution of times of painful stretchings) returns 15.8%

For record CCc1ccc(C(=O)c2ccccc2)cc1 [compound 66] the listed Analgesic (percentage diminution of times of painful stretchings) is 15.7%

For CCCc1ccc(C(=O)c2ccccc2F)cc1 [compound 7] the compound record lists Analgesic (percentage diminution of times of painful stretchings) as 15.0%

The measured Analgesic (percentage diminution of times of painful stretchings) associated with O=C(c1ccccc1)c1ccccc1C(=O)c1ccccc1 [compound 113] reads 14.5%

The compound identified as Cc1ccc(C(=O)C(=O)c2ccccc2)cc1 [compound 54] registered its Analgesic (percentage diminution of times of painful stretchings) at 11.3%

Analgesic (percentage diminution of times of painful stretchings) reading for Cc1ccc(C(=O)c2ccccc2)c(C)c1 [compound 37] : 9.8%

Record `COc1ccc(C(=O)C(=O)c2ccccc2)cc1` . Reported Analgesic (percentage diminution of times of painful stretchings): 10.2%

Noted for CCc1ccc(C(=O)c2ccc(CC)cc2)cc1 [compound 106] : its Analgesic (percentage diminution of times of painful stretchings) reads 7.3%

// sample CCCCCc1ccc(C(=O)c2ccccc2F)cc1 [compound 9] , its Analgesic (percentage diminution of times of painful stretchings) was 15.3%

Data point: CCCc1ccc(CCC)c(C(=O)c2ccccc2)c1 [compound 16] ; Analgesic (percentage diminution of times of painful stretchings) = 12.4%

* * *

- ASSAY OVERVIEW: in vivo
- TEST CONTEXT: mouse, po
Note to self: use class 1 only for LD50 at 72 h readings below 2000 mg/kg; a reading exactly at 2000 mg/kg still gets class 0.

query: Please state whether LD50 at 72 h is below 2000 mg/kg for `CCCCCCCCCCc1ccc(C(=O)Cc2ccccc2)cc1`
result: class 0

* * *

- Tested on: painful stretchings induced by acetic acid
- ASSAY OVERVIEW: acetic acid induced stretching (analgesic effect)
- TEST CONTEXT: 100 mg/kg oral, 0.7% acetic acid i.p., mice
OUTCOME MEASURE: Analgesic (percentage diminution of times of painful stretchings) (%)
Note: unit % is implicit; provide only the numeric part.

>>> numeric_result("Cc1ccc(C)c(C(=O)c2ccccc2)c1")
18.0
>>> numeric_result("CCCCc1ccc(C(=O)c2ccccc2F)cc1")
14.8

The reported value for `Cc1cc(C)c(C(=O)c2ccccc2F)c(C)c1` in terms of Analgesic (percentage diminution of times of painful stretchings) is 13.9

Quick note, Analgesic (percentage diminution of times of painful stretchings) for `CCCCCCCc1ccc(C(=O)c2ccccc2)cc1` landed at 48.6

Entry `CC(C)(C)c1ccc(C(=O)c2ccccc2)cc1` , Analgesic (percentage diminution of times of painful stretchings) reported as 8.2

Input `CCCCc1ccc(C(=O)c2ccc(CCC)cc2)cc1` . Output Analgesic (percentage diminution of times of painful stretchings): 16.4

* * *

- ASSAY OVERVIEW: in vivo
- TEST CONTEXT: mouse, po
OUTCOME MEASURE: LD50 at 72 h

Check out these entries, answers already filled in.
>>> result("CCCCCCCCc1ccc(C(=O)c2ccccc2Br)cc1")
"2000 mg/kg"
>>> result("O=C(c1ccccc1)c1ccc(C2CCCCC2)cc1")
"6000 mg/kg"
>>> result("CCCCc1ccc(C(=O)Cc2ccccc2)cc1")
"> 10000 mg/kg"
>>> result("CCCc1ccc(C(=O)c2ccccc2F)cc1")
"1500 mg/kg"
>>> result("CCc1ccc(C(=O)c2ccccc2)cc1")
"2000 mg/kg"

LD50 at 72 h for `CCCCc1ccc(C(=O)c2ccc(C)cc2)cc1` is > 10000 mg/kg

So, `CCCCCCCCc1ccc(C(=O)c2cccc(Cl)c2)cc1` ? Its LD50 at 72 h was 2000 mg/kg

Entry `COc1cc(OC)c(C(=O)c2ccccc2)c(OC)c1` — recorded LD50 at 72 h = 2500 mg/kg

The recorded LD50 at 72 h for entry `CCCCCCCCc1ccc(C(=O)c2ccc(I)cc2)cc1` equals > 10000 mg/kg

// LD50 at 72 h lookup, molecule = `CCCCCCCCc1ccc(C(=O)c2ccccc2)cc1` , result: 10000 mg/kg

Measured LD50 at 72 h of `COc1ccc(C(=O)c2ccccc2)c(OC)c1` : 5000 mg/kg

* * *

- Test system: carragheenin edema
- ASSAY OVERVIEW: acute carragheenin edema inhibition (anti-inflammatory effect)
- Type: in vivo, male rats
- TEST CONTEXT: 100 mg/kg oral, carragheenin edema, rats; Table 2
Please enter Condition met where Anti-inf. (edema inhibition rate) is greater than or equal to 20%, and Condition not met where it is lower.

>>> label_class("O=C(c1ccccc1)c1ccccc1")
"Condition met"
>>> label_class("COc1ccc(C(=O)C(=O)c2ccccc2)cc1")
"Condition met"
>>> label_class("CCCCCCCc1ccc(C(=O)c2ccc(C)cc2)cc1")
"Condition not met"
>>> label_class("O=C(Cc1ccccc1)c1ccccc1")
"Condition met"
>>> label_class("COc1ccc(C(=O)c2ccccc2)cc1")
"Condition met"

# input for lookup
query: Is Anti-inf. (edema inhibition rate) at least 20%? Consider `Cc1ccc(C(=O)C(=O)c2ccccc2)cc1`
result: Condition met

* * *

- Tested on: painful stretchings induced by acetic acid
- ASSAY OVERVIEW: acetic acid induced stretching (analgesic effect)
- TEST CONTEXT: 100 mg/kg oral, 0.7% acetic acid i.p., mice
Think of 20% as a floor: if Analgesic (percentage diminution of times of painful stretchings) stands on it or above, it is Y; beneath it, N.

>>> label_class("CCCc1ccc(C(=O)c2ccc(C)cc2)cc1")
"N"
>>> label_class("CCCCc1ccc(C(=O)c2ccccc2Cl)cc1")
"N"
>>> label_class("COc1ccc(OC)c(C(=O)c2ccccc2)c1")
"Y"

query: Please indicate if the recorded Analgesic (percentage diminution of times of painful stretchings) for `Cc1cc(C)c(C(=O)c2ccccc2)c(C)c1C` meets or exceeds 20%.
result: Y

* * *

- ASSAY OVERVIEW: in vivo
- TEST CONTEXT: mouse, po
OUTCOME MEASURE: LD50 at 72 h (mg/kg)
Form entry: value (mg/kg) — number only.

>>> numeric_result("Cc1cc(C)c(C(=O)c2ccccc2)c(C)c1C [compound 79]")
1000
>>> numeric_result("CCCCCc1ccc(C(=O)c2ccccc2)cc1 [compound 23]")
5000
>>> numeric_result("O=C(c1ccccc1)c1ccccc1C(=O)c1ccccc1 [compound 113]")
4000

The reported LD50 at 72 h of the compound CCCCc1ccc(C(=O)C(=O)c2ccccc2)cc1 [compound 29] was 10000

For record CCCCOc1ccc(C(=O)c2ccccc2)cc1 [compound 42] the listed LD50 at 72 h is 3000

LD50 at 72 h in this record for CCCCc1ccc(C(=O)c2ccc(OC)cc2)cc1 [compound 18] : 2000

The compound listed as Cc1ccc(C(=O)c2ccccc2Cl)c(C)c1 [compound 135] has a reported LD50 at 72 h of 1000

Looking up CC(C)c1ccc(C(=O)c2ccccc2F)cc1 [compound 117] , I found its LD50 at 72 h recorded as 1500

GET /value?item= Cc1ccc(C(=O)c2cccc(Br)c2)c(C)c1 [compound 149] &field=LD50 at 72 h returns 500
